Values were extracted from ChEMBL document CHEMBL2440076.

List of CC50 values.
- Tested on: ACHN
- EXPERIMENTAL DETAILS: Growth inhibition of human ACHN cells after 48 hrs by sulforhodamine B assay
- Format: functional
- CONDITION: read-out: LC50 (the source's name)
EXPERIMENTAL ENDPOINT: CC50

SMILES STR | EXPERIMENTAL ENDPOINT | ASSAY RESULT
COc1cc(-c2nn(-c3cccc(NC(=O)c4ccc(N5CCOCC5)c(C(F)(F)F)c4)c3)cc2-c2ccncc2)ccc1Cl | CC50 | > 100 µM
O=C(Nc1cccc(-n2cc(-c3ccncc3)c(-c3ccc(Cl)c(O)c3)n2)c1)Nc1ccc(Cl)c(Cl)c1 | CC50 | > 32.5 µM
COc1cc(-c2nn(-c3cccc(NC(=O)c4ccc(Cl)c(C(F)(F)F)c4)c3)cc2-c2ccncc2)ccc1Cl | CC50 | > 32.5 µM
COc1cc(-c2nn(-c3cccc(NC(=O)Nc4cc(C(F)(F)F)cc(C(F)(F)F)c4)c3)cc2-c2ccncc2)ccc1Cl | CC50 | > 50 µM

----------
- Test system: SF-539
- EXPERIMENTAL DETAILS: Growth inhibition of human SF539 cells assessed as cell growth at 10 uM after 48 hrs by sulforhodamine B assay
- Type: functional
- CONDITION: SF-539, 48 h, read-out: Activity
List of growth at 10 µM values.

SMILES STR | growth at 10 µM / %
COc1cc(-c2nn(-c3cccc(NC(=O)c4cccc(C(F)(F)F)c4)c3)cc2-c2ccncc2)ccc1Cl | -48.8
COc1cc(-c2nn(-c3cccc(NC(=O)c4ccc(Br)c(C)c4)c3)cc2-c2ccncc2)ccc1Cl | 76.8
O=C(Nc1cccc(-n2cc(-c3ccncc3)c(-c3ccc(Cl)c(O)c3)n2)c1)c1ccccc1 | 74.7
COc1cc(-c2nn(-c3cccc(NC(=O)c4ccccc4)c3)cc2-c2ccncc2)ccc1Cl | -15
O=C(Nc1cccc(-n2cc(-c3ccncc3)c(-c3ccc(Cl)c(O)c3)n2)c1)Nc1ccc(Cl)c(C(F)(F)F)c1 | -26.1

----------
- System: COLO 205
- EXPERIMENTAL DETAILS: Growth inhibition of human COLO205 cells after 48 hrs by sulforhodamine B assay
- Assay type: functional
- CONDITION: COLO 205, 48 h
List of TGI values.

SMILES STR | TGI
O=C(Nc1cccc(-n2cc(-c3ccncc3)c(-c3ccc(Cl)c(O)c3)n2)c1)Nc1cc(C(F)(F)F)cc(C(F)(F)F)c1 | 1.58 µM
O=C(Nc1cccc(-n2cc(-c3ccncc3)c(-c3ccc(Cl)c(O)c3)n2)c1)Nc1ccc(Cl)c(Cl)c1 | 9.49 µM
O=C(Nc1cccc(-n2cc(-c3ccncc3)c(-c3ccc(Cl)c(O)c3)n2)c1)Nc1cccc(C(F)(F)F)c1 | 23.8 µM
COc1cc(-c2nn(-c3cccc(NC(=O)c4ccc(Cl)c(C(F)(F)F)c4)c3)cc2-c2ccncc2)ccc1Cl | 23.3 µM
COc1cc(-c2nn(-c3cccc(NC(=O)Nc4cccc(C(F)(F)F)c4)c3)cc2-c2ccncc2)ccc1Cl | 1.75 µM

----------
- System: SW-620
- EXPERIMENTAL DETAILS: Growth inhibition of human SW620 cells assessed as cell growth at 10 uM after 48 hrs by sulforhodamine B assay
- Assay type: functional
- CONDITION: SW-620, 48 h, read-out: Activity
Could you label it MET if measured growth at 10 µM is 80% or higher, and NOT MET otherwise?

SMILES STR | TARGET DESC | LABEL VALUE
COc1cc(-c2nn(-c3cccc(NC(=O)c4ccc(Br)c(C)c4)c3)cc2-c2ccncc2)ccc1Cl | SW-620 | MET
O=C(Nc1cccc(-n2cc(-c3ccncc3)c(-c3ccc(Cl)c(O)c3)n2)c1)c1ccc(Cl)c(C(F)(F)F)c1 | SW-620 | MET
COc1cc(-c2nn(-c3cccc(NC(=O)c4ccc(N5CCOCC5)c(C(F)(F)F)c4)c3)cc2-c2ccncc2)ccc1Cl | SW-620 | NOT MET
Cc1cc(C(=O)Nc2cccc(-n3cc(-c4ccncc4)c(-c4ccc(Cl)c(O)c4)n3)c2)ccc1Br | SW-620 | MET
COc1cc(-c2nn(-c3cccc(NC(=O)c4ccccc4)c3)cc2-c2ccncc2)ccc1Cl | SW-620 | NOT MET

----------
- EXPERIMENTAL DETAILS: Growth inhibition of human HCC2998 cells after 48 hrs by sulforhodamine B assay
- Assay type: functional
- CONDITION: HCC 2998, 48 h
Threshold-based label: GI50 under 2000 nM gives yes (1), GI50 not under 2000 nM gives no (0).

SMILES STR | LABEL VALUE
COc1cc(-c2nn(-c3cccc(NC(=O)c4ccccc4)c3)cc2-c2ccncc2)ccc1Cl | no (0)
COc1cc(-c2nn(-c3cccc(NC(=O)Nc4cc(C(F)(F)F)cc(C(F)(F)F)c4)c3)cc2-c2ccncc2)ccc1Cl | yes (1)
COc1cc(-c2nn(-c3cccc(NC(=O)Nc4ccc(Cl)c(C(F)(F)F)c4)c3)cc2-c2ccncc2)ccc1Cl | yes (1)
COc1cc(-c2nn(-c3cccc(NC(=O)c4ccc(Cl)c(C(F)(F)F)c4)c3)cc2-c2ccncc2)ccc1Cl | no (0)
O=C(Nc1cccc(-n2cc(-c3ccncc3)c(-c3ccc(Cl)c(O)c3)n2)c1)Nc1cccc(C(F)(F)F)c1 | no (0)
COc1cc(-c2nn(-c3cccc(NC(=O)Nc4ccc(Cl)c(Cl)c4)c3)cc2-c2ccncc2)ccc1Cl | yes (1)

----------
- Test system: SK-MEL-5
- EXPERIMENTAL DETAILS: Growth inhibition of human SK-MEL-5 cells after 48 hrs by sulforhodamine B assay
- Type: functional
- CONDITION: SK-MEL-5, 48 h

SMILES STR | GI50 / nM
O=C(Nc1cccc(-n2cc(-c3ccncc3)c(-c3ccc(Cl)c(O)c3)n2)c1)Nc1cc(C(F)(F)F)cc(C(F)(F)F)c1 | 600
O=C(Nc1cccc(-n2cc(-c3ccncc3)c(-c3ccc(Cl)c(O)c3)n2)c1)Nc1ccc(Cl)c(Cl)c1 | 570
COc1cc(-c2nn(-c3cccc(NC(=O)Nc4cc(C(F)(F)F)cc(C(F)(F)F)c4)c3)cc2-c2ccncc2)ccc1Cl | 694
COc1cc(-c2nn(-c3cccc(NC(=O)Nc4cccc(C(F)(F)F)c4)c3)cc2-c2ccncc2)ccc1Cl | 720

----------
- Test system: SF-295
- EXPERIMENTAL DETAILS: Growth inhibition of human SF295 cells assessed as cell growth at 5X10'-7 M after 48 hrs by sulforhodamine B assay
- Assay type: functional
- CONDITION: SF-295, 48 h, read-out: Activity

SMILES STR | growth at 0.5 µM
O=C(Nc1cccc(-n2cc(-c3ccncc3)c(-c3ccc(Cl)c(O)c3)n2)c1)c1ccc(N2CCOCC2)c(C(F)(F)F)c1 | 93%
COc1cc(-c2nn(-c3cccc(NC(=O)c4cccc(C(F)(F)F)c4)c3)cc2-c2ccncc2)ccc1Cl | 83%
O=C(Nc1cccc(-n2cc(-c3ccncc3)c(-c3ccc(Cl)c(O)c3)n2)c1)Nc1cc(C(F)(F)F)cc(C(F)(F)F)c1 | 61%
COc1cc(-c2nn(-c3cccc(NC(=O)Nc4cccc(C(F)(F)F)c4)c3)cc2-c2ccncc2)ccc1Cl | 39%

----------
List of CC50 values.
- System: OVCAR-8
- EXPERIMENTAL DETAILS: Growth inhibition of human OVCAR8 cells after 48 hrs by sulforhodamine B assay
- Type: functional
- CONDITION: OVCAR-8, 48 h, read-out: LC50 (the source's name)

SMILES STR | TARGET DESC | CC50
O=C(Nc1cccc(-n2cc(-c3ccncc3)c(-c3ccc(Cl)c(O)c3)n2)c1)Nc1cccc(C(F)(F)F)c1 | OVCAR-8 | > 32.5 µM
COc1cc(-c2nn(-c3cccc(NC(=O)Nc4cc(C(F)(F)F)cc(C(F)(F)F)c4)c3)cc2-c2ccncc2)ccc1Cl | OVCAR-8 | > 50 µM
COc1cc(-c2nn(-c3cccc(NC(=O)c4cccc(C(F)(F)F)c4)c3)cc2-c2ccncc2)ccc1Cl | OVCAR-8 | > 50 µM
COc1cc(-c2nn(-c3cccc(NC(=O)c4ccc(N5CCOCC5)c(C(F)(F)F)c4)c3)cc2-c2ccncc2)ccc1Cl | OVCAR-8 | > 100 µM
O=C(Nc1cccc(-n2cc(-c3ccncc3)c(-c3ccc(Cl)c(O)c3)n2)c1)c1ccc(N2CCOCC2)c(C(F)(F)F)c1 | OVCAR-8 | > 50 µM
O=C(Nc1cccc(-n2cc(-c3ccncc3)c(-c3ccc(Cl)c(O)c3)n2)c1)Nc1ccc(Cl)c(Cl)c1 | OVCAR-8 | > 32.5 µM
O=C(Nc1cccc(-n2cc(-c3ccncc3)c(-c3ccc(Cl)c(O)c3)n2)c1)Nc1cc(C(F)(F)F)cc(C(F)(F)F)c1 | OVCAR-8 | 43.7 µM
